molecular target: DPPIV enzyme; human recombinant (Homo sapiens, UniProt P27487); construct: purchased BIOMOL E434-9090 (kit AK-499); test: DPPIV inhibitory activity (DPPIV Drug Discovery Kit-AK-499, H-Gly-Pro-AMC substrate); assay type: biochemical; conditions: peptides; human recombinant DPPIV
Sequence (P27487 whole entry): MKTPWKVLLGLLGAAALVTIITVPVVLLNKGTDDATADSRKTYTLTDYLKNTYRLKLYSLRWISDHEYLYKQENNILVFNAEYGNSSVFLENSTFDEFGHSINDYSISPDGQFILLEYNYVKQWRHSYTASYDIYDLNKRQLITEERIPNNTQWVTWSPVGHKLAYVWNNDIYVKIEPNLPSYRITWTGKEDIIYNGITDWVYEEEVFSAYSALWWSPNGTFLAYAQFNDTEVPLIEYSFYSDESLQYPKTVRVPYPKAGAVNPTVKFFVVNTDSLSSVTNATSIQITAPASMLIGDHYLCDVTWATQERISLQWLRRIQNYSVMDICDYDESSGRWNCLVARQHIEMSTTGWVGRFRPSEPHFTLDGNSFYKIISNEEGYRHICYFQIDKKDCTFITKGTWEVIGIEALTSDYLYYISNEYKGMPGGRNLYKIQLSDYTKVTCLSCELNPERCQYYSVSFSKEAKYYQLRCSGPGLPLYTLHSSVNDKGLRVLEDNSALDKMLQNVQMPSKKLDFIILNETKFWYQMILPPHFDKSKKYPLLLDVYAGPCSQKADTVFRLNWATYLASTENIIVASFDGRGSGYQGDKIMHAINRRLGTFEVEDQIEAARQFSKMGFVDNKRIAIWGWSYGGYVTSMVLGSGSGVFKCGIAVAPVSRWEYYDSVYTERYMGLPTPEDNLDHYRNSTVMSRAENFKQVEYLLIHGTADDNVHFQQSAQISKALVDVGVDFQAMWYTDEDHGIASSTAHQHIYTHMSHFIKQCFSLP
Square brackets hold non-standard residues; d marks the D form. Peptide text beside a SMILES is read from it. Hyp = O=C(O)[C@@H]1C[C@@H](O)CN1
measured-property: IC50 (concentration at which 50% of DPPIV activity was inhibited) (mM)
Output spec: scalar in mM, unitless text.

// returns reported IC50 (concentration at which 50% of DPPIV activity was inhibited) for input C[C@H](NC(=O)[C@@H]1CCCN1)C(=O)O [PA, Pro-Ala] (H-Pro-Ala-OH; N-terminus and C-terminus assumed) 1.0

GET /values?readout=IC50 (concentration at which 50% of DPPIV activity was inhibited)&item= O=C(O)CNC(=O)[C@@H]1C[C@@H](O)CN1C(=O)[C@@H]1CCCN1 [POG, Pro-Hyp-Gly] (H-Pro-[Hyp]-Gly-OH; N-terminus and C-terminus assumed) 0.6
